B1: PhoQ; a variant is named by its letters at X, in order, P23837 (parent)
chain: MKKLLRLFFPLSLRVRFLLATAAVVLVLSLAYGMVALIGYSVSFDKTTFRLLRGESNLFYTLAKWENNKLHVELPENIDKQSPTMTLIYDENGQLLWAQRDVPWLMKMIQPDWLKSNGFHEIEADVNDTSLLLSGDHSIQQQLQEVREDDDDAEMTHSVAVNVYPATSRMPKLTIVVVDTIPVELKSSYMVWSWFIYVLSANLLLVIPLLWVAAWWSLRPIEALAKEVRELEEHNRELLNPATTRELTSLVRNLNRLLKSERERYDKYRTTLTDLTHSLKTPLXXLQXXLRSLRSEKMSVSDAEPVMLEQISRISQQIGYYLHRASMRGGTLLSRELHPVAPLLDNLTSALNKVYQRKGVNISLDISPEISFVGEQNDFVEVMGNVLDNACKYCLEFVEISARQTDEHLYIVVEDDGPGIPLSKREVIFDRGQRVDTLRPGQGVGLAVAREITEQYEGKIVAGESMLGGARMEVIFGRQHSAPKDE

# Variants of: B1
# assayRemarks: enrichment ratio after two sorts for PhoP signalling (ratio (wild type AVST 3.29)); higher = more functional
# conditionSummary: with PhoP (E. coli)
In all, about 140,000 sequences were measured (“enrichment ratio after two sorts for PhoP signalling”: median about 0, highest 2% from about 11 on). What follows is part of a selection rich in the highest values, with near analogues and random picks from the rest.
enrichment ratio values for the variants below.
measurementLabel: enrichment ratio

KSIC ... ≤ 0.25
TTCI ... 15.8
NDGW ... ≤ 0.25
KYLR ... ≤ 0.25
SDVG ... 1.53
SCIC ... 7.92
HYAH ... ≤ 0.25
LLMM ... ≤ 0.25
TTCE ... 8.85
IMDI ... ≤ 0.25
KDVC ... ≤ 0.25
TCKY ... ≤ 0.25
STIC ... 13
RRIS ... ≤ 0.25
KVMG ... ≤ 0.25
PAAR ... ≤ 0.25
TDVC ... 24.1
MEFG ... 5.56
TKLN ... 8.35
MHQA ... ≤ 0.25
MWVS ... ≤ 0.25
LTIC ... ≤ 0.25

Values from a collection of fitness landscapes (doi:10.1126/science.1257360)
